System: ASK1 (Homo sapiens (Human), UniProt Q99683) | Read-out: pIC50
Sequence (Q99683 whole entry): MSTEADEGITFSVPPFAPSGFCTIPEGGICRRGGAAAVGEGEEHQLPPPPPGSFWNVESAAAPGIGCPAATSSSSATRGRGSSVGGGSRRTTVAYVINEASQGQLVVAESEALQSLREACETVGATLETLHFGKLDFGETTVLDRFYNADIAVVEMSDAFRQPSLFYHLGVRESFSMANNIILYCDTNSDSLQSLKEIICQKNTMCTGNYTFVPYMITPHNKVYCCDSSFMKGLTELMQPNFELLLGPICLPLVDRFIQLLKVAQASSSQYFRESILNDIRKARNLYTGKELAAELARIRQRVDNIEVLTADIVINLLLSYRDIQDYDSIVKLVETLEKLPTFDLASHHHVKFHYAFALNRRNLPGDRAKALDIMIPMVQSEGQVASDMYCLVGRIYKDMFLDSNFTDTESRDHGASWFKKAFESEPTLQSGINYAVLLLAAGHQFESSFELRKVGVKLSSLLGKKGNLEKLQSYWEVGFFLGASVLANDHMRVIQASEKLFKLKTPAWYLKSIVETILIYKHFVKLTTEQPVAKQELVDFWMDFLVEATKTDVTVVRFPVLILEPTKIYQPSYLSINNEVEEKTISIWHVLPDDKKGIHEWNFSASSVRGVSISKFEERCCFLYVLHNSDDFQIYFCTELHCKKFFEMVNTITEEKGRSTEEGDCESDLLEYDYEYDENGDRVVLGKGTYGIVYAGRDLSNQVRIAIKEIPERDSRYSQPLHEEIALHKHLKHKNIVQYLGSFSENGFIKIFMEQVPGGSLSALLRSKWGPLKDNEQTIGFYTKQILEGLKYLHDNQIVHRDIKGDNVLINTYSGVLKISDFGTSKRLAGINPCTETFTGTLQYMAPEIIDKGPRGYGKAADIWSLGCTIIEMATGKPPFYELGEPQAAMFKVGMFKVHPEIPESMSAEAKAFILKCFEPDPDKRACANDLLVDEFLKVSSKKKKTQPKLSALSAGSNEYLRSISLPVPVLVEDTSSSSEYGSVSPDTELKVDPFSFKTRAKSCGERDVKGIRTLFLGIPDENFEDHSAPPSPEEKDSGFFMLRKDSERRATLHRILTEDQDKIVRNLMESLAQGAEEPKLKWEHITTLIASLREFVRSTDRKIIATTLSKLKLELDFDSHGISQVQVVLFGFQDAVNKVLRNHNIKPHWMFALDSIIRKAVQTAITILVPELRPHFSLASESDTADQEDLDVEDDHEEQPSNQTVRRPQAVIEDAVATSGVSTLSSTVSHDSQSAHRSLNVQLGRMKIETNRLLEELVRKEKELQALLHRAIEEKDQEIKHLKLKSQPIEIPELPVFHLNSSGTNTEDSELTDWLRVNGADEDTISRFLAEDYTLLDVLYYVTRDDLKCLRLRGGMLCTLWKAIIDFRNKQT
pIC50: −log10 of the molar value.
reported-endpoint: pIC50

COCCOC(=O)N1CCc2cc(OC)c(C(=O)Nc3cccc(-c4nnnn4[C@H](C)CO)n3)cc2C1 :: > 8.90
COc1cc2c(cc1C(=O)Nc1cccc(-c3nncn3C(C)C)n1)CN(C(=O)[C@@H](O)CC(C)C)CC2 :: > 8.90
CCOC(=O)N1CCc2cc(F)c(C(=O)Nc3cccc(-c4nncn4[C@H](C)CF)n3)cc2C1 :: 8.00 to 8.90
COc1cc2c(cc1C(=O)Nc1cccc(-c3nnnn3[C@H](C)CO)n1)CN(C(=O)CN1CCOC1=O)CC2 :: > 8.90
COc1cc2c(cc1C(=O)Nc1cccc(-c3nnnn3[C@H](C)CO)n1)CN(C(=O)OC[C@@H](O)C(F)(F)F)CC2 :: > 8.90

====

Biological target: ASK1 (Homo sapiens (Human), UniProt Q99683)
pIC50: −log10 of the molar value.
reported-endpoint: pIC50

C[C@H](CO)n1nnnc1-c1cccc(NC(=O)c2cc3c(cc2F)CCN(Cc2ccc(F)cc2)C3)n1 :: 7.00 to 8.00
CCNC(=O)N1CCc2cc(F)c(C(=O)Nc3cccc(-c4nnnn4[C@H](C)CO)n3)cc2C1 :: 8.00 to 8.90
CC(C)n1cnnc1-c1cccc(NC(=O)c2cc3c(cn2)CCN(C(=O)OCC(F)(F)F)C3)n1 :: 8.00 to 8.90
C[C@H](CO)n1nnnc1-c1cccc(NC(=O)c2cc3c(cc2F)CCN(C(=O)NC2CC2)C3)n1 :: 8.00 to 8.90
COc1cc2c(cc1C(=O)Nc1cccc(-c3nnnn3[C@H](C)CO)n1)CN(C(=O)c1cc3ccccc3cn1)CC2 :: 8.00 to 8.90
COc1cc2c(cc1C(=O)Nc1cccc(-c3nnnn3[C@H](C)CO)n1)CN(CC(=O)N1CCCC1)CC2 :: > 8.90
C[C@H](CO)n1cnnc1-c1cccc(NC(=O)c2cc3c(cn2)CCN(S(=O)(=O)C2CC2)C3)n1 :: 7.00 to 8.00
C[C@H](CO)n1nnnc1-c1cccc(NC(=O)c2cc3c(cc2F)CCN(C(=O)N2CCCCC2)C3)n1 :: 8.00 to 8.90
COc1cc2c(cc1C(=O)Nc1cccc(-c3nnnn3[C@H](C)CO)n1)CN(C(=O)c1cnccn1)CC2 :: > 8.90
COc1cc2c(cc1C(=O)Nc1cccc(-c3nncn3C(C)C)n1)CN(C(=O)C[C@H](C)O)CC2 :: > 8.90
C[C@H](CO)n1nnnc1-c1cccc(NC(=O)c2cc3c(cn2)CCN(C(=O)N2CCOCC2)C3)n1 :: 8.00 to 8.90
COc1cc2c(cc1C(=O)Nc1cccc(-c3nnnn3[C@H](C)CO)n1)CN(c1ncns1)CC2 :: 8.00 to 8.90
CC(C)n1cnnc1-c1cccc(NC(=O)c2cc3c(cn2)CCN(C(=O)C(C)(C)C)C3)n1 :: 8.00 to 8.90
COc1cc2c(cc1C(=O)Nc1cccc(-c3nnnn3[C@H](C)CO)n1)CN(S(=O)(=O)c1ccccn1)CC2 :: > 8.90
CC(C)CN1CCc2cnc(C(=O)Nc3cccc(-c4nncn4C(C)C)n3)cc2C1 :: 7.00 to 8.00

====

Listed here: items and their measured IC50.
Target: ASK1 (Homo sapiens (Human), UniProt Q99683)
reported-endpoint: IC50

COc1cc2c(cc1C(=O)Nc1cccc(-c3nnnn3[C@H](C)CO)n1)CN(C(=O)OCC(C)(C)O)CC2 [Example 130] :: < 1.25 nM
COc1cc2c(cc1C(=O)Nc1cccc(-c3nnnn3[C@H](C)CO)n1)CN(c1cnc(F)cn1)CC2 [Example 154] :: 1.25 to 10 nM
C[C@H](CO)n1nnnc1-c1cccc(NC(=O)c2cc3c(cn2)CCN(C(=O)C(C)(C)O)C3)n1 [Example 140] :: 1.25 to 10 nM
COc1cc2c(cc1C(=O)Nc1cccc(-c3nnnn3[C@H](C)CO)n1)CN(C(=O)C(C)(C)O)CC2 [Example 115] :: < 1.25 nM

====

System: ASK1 (Homo sapiens (Human), UniProt Q99683) | Read-out: IC50
reported-endpoint: IC50

C[C@H](CO)n1nnnc1-c1cccc(NC(=O)c2cc3c(cc2F)CCN(S(=O)(=O)NC2CC2)C3)n1 :: 0.01 to 0.1 µM
COc1cc2c(cc1C(=O)Nc1cccc(-c3nnnn3[C@H](C)CO)n1)CN(C(=O)[C@@H](O)CC(C)C)CC2 :: < 0.00125 µM
CCOC(=O)N1CCc2cnc(C(=O)Nc3cccc(-c4nnnn4[C@H]4CCC[C@@H]4O)n3)cc2C1 :: 0.01 to 0.1 µM
C[C@H](CO)n1nnnc1-c1cccc(NC(=O)c2cc3c(cn2)CCN(C(=O)c2cnn(C4CC4)c2)C3)n1 :: 0.00125 to 0.01 µM
